Listed next: entries and their corresponding pIC50.
# tgt: PI3Kγ (Homo sapiens, UniProt P48736)
# Construct: HA
# Sequence (P48736 whole entry, species assumed): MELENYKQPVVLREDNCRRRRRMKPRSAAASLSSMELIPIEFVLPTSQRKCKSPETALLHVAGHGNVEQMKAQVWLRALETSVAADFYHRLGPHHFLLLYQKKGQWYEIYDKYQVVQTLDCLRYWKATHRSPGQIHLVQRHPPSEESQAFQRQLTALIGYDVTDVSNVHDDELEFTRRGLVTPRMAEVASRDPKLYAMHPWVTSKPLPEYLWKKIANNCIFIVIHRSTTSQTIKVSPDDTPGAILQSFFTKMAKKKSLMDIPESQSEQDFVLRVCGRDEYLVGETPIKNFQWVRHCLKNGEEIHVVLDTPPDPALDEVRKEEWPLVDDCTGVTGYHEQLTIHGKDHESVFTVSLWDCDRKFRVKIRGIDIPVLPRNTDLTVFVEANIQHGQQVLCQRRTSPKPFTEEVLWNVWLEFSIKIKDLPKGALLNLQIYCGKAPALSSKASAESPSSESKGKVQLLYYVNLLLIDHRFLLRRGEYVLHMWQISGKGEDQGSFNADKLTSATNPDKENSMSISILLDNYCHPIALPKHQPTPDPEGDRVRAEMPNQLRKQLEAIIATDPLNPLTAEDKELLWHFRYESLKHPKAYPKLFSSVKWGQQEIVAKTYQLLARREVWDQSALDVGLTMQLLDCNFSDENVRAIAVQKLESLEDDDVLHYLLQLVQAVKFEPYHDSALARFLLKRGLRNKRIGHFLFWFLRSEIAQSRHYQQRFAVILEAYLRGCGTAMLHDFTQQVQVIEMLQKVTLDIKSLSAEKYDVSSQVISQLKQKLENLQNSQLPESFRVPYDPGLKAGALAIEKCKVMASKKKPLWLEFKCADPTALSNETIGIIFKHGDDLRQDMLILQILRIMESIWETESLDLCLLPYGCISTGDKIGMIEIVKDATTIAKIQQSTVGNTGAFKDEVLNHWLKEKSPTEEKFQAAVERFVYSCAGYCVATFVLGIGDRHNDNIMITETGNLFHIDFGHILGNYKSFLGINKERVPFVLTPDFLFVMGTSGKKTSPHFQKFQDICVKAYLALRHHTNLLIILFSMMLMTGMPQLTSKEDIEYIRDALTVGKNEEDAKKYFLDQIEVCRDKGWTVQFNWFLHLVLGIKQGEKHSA
# Sequence (Q8WYR1 whole entry partner, species assumed): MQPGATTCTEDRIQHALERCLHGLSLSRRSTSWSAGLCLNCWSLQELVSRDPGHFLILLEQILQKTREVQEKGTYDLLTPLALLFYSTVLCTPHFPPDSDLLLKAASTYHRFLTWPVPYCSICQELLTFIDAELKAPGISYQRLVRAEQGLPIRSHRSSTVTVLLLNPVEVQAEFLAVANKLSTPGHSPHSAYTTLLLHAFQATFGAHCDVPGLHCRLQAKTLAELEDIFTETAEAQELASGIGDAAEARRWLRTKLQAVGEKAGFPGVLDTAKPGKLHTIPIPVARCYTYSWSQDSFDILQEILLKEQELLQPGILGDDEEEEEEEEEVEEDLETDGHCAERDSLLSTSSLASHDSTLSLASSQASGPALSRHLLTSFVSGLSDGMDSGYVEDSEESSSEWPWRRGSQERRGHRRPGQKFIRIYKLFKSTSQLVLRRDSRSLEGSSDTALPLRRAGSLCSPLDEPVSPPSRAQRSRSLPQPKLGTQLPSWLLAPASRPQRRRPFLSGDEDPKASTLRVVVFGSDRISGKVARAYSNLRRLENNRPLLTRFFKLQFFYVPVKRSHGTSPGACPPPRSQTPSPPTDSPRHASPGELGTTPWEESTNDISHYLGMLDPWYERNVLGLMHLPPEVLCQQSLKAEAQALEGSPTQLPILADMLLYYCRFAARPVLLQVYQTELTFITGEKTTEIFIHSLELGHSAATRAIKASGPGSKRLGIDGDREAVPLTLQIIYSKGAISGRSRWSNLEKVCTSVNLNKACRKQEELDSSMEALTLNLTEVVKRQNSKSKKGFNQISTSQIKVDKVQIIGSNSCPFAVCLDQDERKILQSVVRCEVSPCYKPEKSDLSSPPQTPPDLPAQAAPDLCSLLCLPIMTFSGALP
# assaySummary: PI3Kγ In Vitro Kinase Assay
# conditionDescription: purified recombinant p101/p110 γ protein with G protein β1/γ2 subunits; 20 μM ATP, 25 μM PIP2; 20 minutes at room temperature; radioactive PIP3 readout
pIC50: −log10 of the molar value.

{"columns": ["compound", "pIC50"],
 "data": [
  ["COc1cc2sc(C(=O)Nc3nnn[nH]3)c(OCCCC3CCCCC3)c2cc1OC [Example 36]", 7.64],
  ["COc1cc2sc(C(=O)Nc3nnn[nH]3)c(OCC3(C)CC3)c2cc1OC [Example 37]", 7.29],
  ["COc1cc2c(OC3CCNCC3)c(C(=O)Nc3nn[nH]n3)sc2cc1C [Example 12]", 6.15],
  ["COc1cc2c(OC3CCCC(C)C3)c(C(=O)Nc3nn[nH]n3)sc2cc1C (single isomer, unassigned) [Example 2]", 7.62],
  ["COc1cc2sc(C(=O)Nc3nn[nH]n3)c(OC3CCCCC3)c2cc1OC [Example 22]", 7.47],
  ["COc1cc2sc(C(=O)Nc3nnn[nH]3)c(OC3CCN(Cc4ccccc4)CC3)c2cc1OC [Example 49]", 5.59],
  ["COc1cc2sc(C(=O)Nc3nnn[nH]3)c(OC3CC(C)CC(C)C3)c2cc1OC (stereo not drawn) [Example 46]", 7.52],
  ["COc1cc2sc(C(=O)Nc3nnn[nH]3)c(OCC3CCCC3)c2cc1OC [Example 43]", 7.00],
  ["COc1cc2sc(C(=O)Nc3nnn[nH]3)c(OC3CCCCC3C)c2cc1OC (stereo not drawn) [Example 26]", 7.00]
]}
